Readings of pKd for the listed binders
- target.or.system: T1, AFP158/HLA-A*02:01 complex (human)
- T1 construct: flowed as analyte in SPR
- assay.explanation: SPR, crude scFv captured, pMHC analyte;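 also: pMHC analyte injected at three concentrations, association phase of one hundred seconds, then running buffer for dissociation, rates fitted from both curves, KD derived from the rates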
Scale note: pKd = -log10(concentration in M).

>  <binder>
AS170036 VL1VH1-56Y98F (scFv, also called 01-AS170036 VL1VH1-56Y98F) scFv: QSALTQPRSVSGSPGQSVTISCAGTSSDVGSENYVSWYQQHPGKAPKLMIYQVNKRASGVPDRFSGSKSGNTASLTISGLQAEDEADYYCASYRSSDFNIVFGGGTKLTVLGGGGSGGGGSGGGGSEVQLVESGGGLVQPGGSLRLSCAASGFTFSSYAMSWVRQAPGKGLEWVSTINSGTYSPYYADSVKGRFTISRDNSKNTLYLQMNSLRAEDTAVYYCAKNFFDGSWFLGPPAMDYWGQGTLVTVSSHHHHHH

>  <observed.property>
pKd

>  <observed.value>
7.96

$$$$

Pending binder:
Complete the entry with pKd for AS170036 VL1VH1-57K108D (scFv, also called 26-AS170036 VL1VH1-57K108D) scFv: QSALTQPRSVSGSPGQSVTISCAGTSSDVGSENYVSWYQQHPGKAPKLMIYQVNKRASGVPDRFSGSKSGNTASLTISGLQAEDEADYYCASYRSSDHNIVFGGGTKLTVLGGGGSGGGGSGGGGSEVQLVESGGGLVQPGGSLRLSCAASGFTFSSYAMSWVRQAPGKGLEWVSTINSGTGKPYYADSVKGRFTISRDNSKNTLYLQMNSLRAEDTAVYYCAKNFFDGSWFLDPPAMDYWGQGTLVTVSSHHHHHH 7.92
